compounds and their reported melting point

Some solved cases for reference:
What value of melting point has been reported for the following compound? Cc1ccc(NC(=O)c2cccc(Cl)c2)c(C(=O)O)c1
191 to 193 °C

Repeat with COc1cccc2c1CCCC(=O)N2
159 to 161 °C

Next compound: N#CCc1nc(-c2c(F)cccc2F)cs1
75 to 77 °C

Now consider O=C(O)CCc1ccc(S(=O)(=O)NC2CC2)cc1 and answer again.
173 to 175 °C

Continuing:
What value of measured melting point is listed for O=C(Nc1cccc2ccccc12)OCC(F)(F)F ?
109 to 111 °C

Request: O=C(c1ccccc1)c1ccc(F)cn1
42 to 44 °C

Now the compound COc1ccc(NC(=O)CC(C)=O)c(OC)c1
96 to 98 °C

Again, but for CCc1nc(C(=O)O)co1
101 to 103 °C

// repeat for Cc1ncsc1C(=O)Cl and report
62 to 64 °C

Now this one: Cc1nnc2c(Cl)nccn12
212 to 214 °C

Ok, now COc1cc(OC)c(N)c(C(=O)O)c1
189 to 191 °C

Next compound up: Clc1cc(OCc2ccccc2)ccn1
93 to 95 °C

Also, O=Cc1cn(-c2ccccc2)nc1-c1cc2ccccc2o1 please.
176 to 178 °C

====

endpoint: melting point

Use these answered entries as a reference point.
Quick check: melting point of COc1ccc(-c2cc(N)n(-c3cccc(C)c3)n2)cc1 ?
125 to 127 °C

Field entry: Nc1nnc(Cc2cccc(F)c2)s1
193 to 195 °C

---
Please give the measured melting point for this molecule: OCCc1nc2ccccc2s1
40 to 44 °C

Can you handle Brc1ccc(CN2CCNCC2)s1 next?
50 to 52 °C

Also, Fc1ccc(-c2nc(CCl)cs2)cc1 please.
54 to 56 °C

====

Listed here are molecules together with their documented melting point.

Some solved cases for reference:
Name the reported melting point value associated with the molecule CC(C)COc1ccc(CC(=O)O)cc1
86 to 88 °C

One more molecule: CN(CC(=O)O)S(=O)(=O)c1cccnc1
175 to 177 °C

Now this one: Sc1nnc(SCc2ccccc2Cl)[nH]1
132 to 135 °C

Next molecule: c1cc(-c2nc3cc4c(cc3[nH]2)OCCO4)cs1
279 to 281 °C

Moving on to the next molecule: Cc1c(C(C)N)cnn1-c1ccc(F)cc1 (configuration not stated)
42 to 44 °C

Please do the same for O=C1CS/C(=C/C(=O)c2cccc(Cl)c2)N1 as well.
207 to 209 °C

Now for the molecule whose melting point we want.
Form field: reported melting point of NS(=O)(=O)CC1CC1
45 to 47 °C

====

Each entry below carries its reported melting point.

Use the examples below as a reference point.
Would you kindly share the measured melting point for Cc1nn(-c2ccccc2)c(C)c1C(=O)C(=O)O ?
206 to 208 °C

Likewise for CN(C(N)=O)c1ccccc1 ?
75 to 77 °C

Repeat for the following compound: O=C(O)CCSc1ccccc1Cl
92 to 102 °C

Proceed to Cc1ccc(Oc2ccc(C#N)cc2)cc1
69 to 71 °C

Now consider CC(N)Cc1cccc(O)c1 (configuration not stated) .
45 to 47 °C

Now the compound COC(=O)CCCNc1nc2ccccc2s1
114 to 116 °C

***
Reported melting point for O=C(O)C1CCCN1C(=O)c1cc(Cl)cc(Cl)c1 (configuration not stated) : what is it?
162 to 164 °C
